assay: yeast display, Sf9 membrane polyspecificity reagent, FACS + sequencing; frameworks hold sequencing errors
recordedEndpoint: polyreactivity (PSR sort gate)

QVQLVESGGGLVQAGGSLRLSCAASGIIFAGNTMGWYIQAPWKERELVAAITWSGGSTYYADSVKGRFTISRDNAKNTVYLQMNSQKPEDTAVYYCAAYYGGYGWDDKYDYWGQGTQVTVSS low polyreactivity
QVQLGESGGGLVQSGGSLRLSCAASGRIFDLNAMGWYRPAPGKERELVAAISYSDGSTYYADSVKGRFTISRDNEKNTVYLQMNSLKTEDTAVYYCAADFFDRTYITWYEYWGQGTQVTVSS high polyreactivity
QVQLVESGGGLVQAGGSLRLICAASGLIFWGYAMGWYRQAPGKERELVAAISSSGGSTYYADSVKGRFTISRDNAKNTVYLQINSLKPEDTAVYYCNADYTYYPGYDYWGQGTLVTVSS low polyreactivity
QVQLVESGGGLVQAGGSLRLSCAASGRTFGANTMGWYRPAPGKERELVAAITWSGDSTYYADSVKGRFTISRDNAKNTVYLQMNSLKPEDTAVYYCAARLWRQYYYWGQGTQVTVSS high polyreactivity
QVQLVESGGGLVQAGGSLRLSCAASGRTFGRYAMGWYRQAPGKERELVAAITRGGGSTYYADSVKGRFTISRDNAKYTVYLQMNSLKPEDTAVYYCAARNFRSPYGYDYWGQGTQVTVSS high polyreactivity
QVQLVESGGGLVQAGGSLRLSCAASGSTFKGYAMGWYRQAPGKERELVAAITWSSGRTYYADSVKGRFTISRDNAKNTVYLQMNSLKPEDTAVYYCAAKSRRTRRSYYWGQGTQVTVSS high polyreactivity
QVQLGESGGGLVQAGGRLRLRCAASGIIFTKYAMGLYRQAPGKERELVAAITASGGSTYYADSVKGRFTISRDTAKNTVYLQMNSLKPEDTAVYYCAARSPSRYGYWGQGTQVTVSS high polyreactivity
QVQLVESGGGLVQAGGSLRLSCAASGSTFYAYDMGWYRQAPGKERELVAAISSGGSTYYADSVKGRFTISRDNAKNTVYLQMNSLKPEDTAVYYCAPEYTYELEASEPSDYDYWGQGTQVTVSS low polyreactivity

Dear colleague, could you please provide polyreactivity (PSR sort gate) for the sequences listed below?
1. QVQLVESGGGLVQAGCSHSLSCAASGSIFWNNAIGSFRQAPVKEREFVAGITGRGGSTYYADSVKGRFTISRDNAKNTVYLQMNSLKPEDTEVYYCATRYLVYRGKYDYWGQGTQVTVSS
2. QVQLVESGGGLVQAGGSLRLSCAASGYIFYYYTMGWYRQATGKEREFVAAISYSVGSTYADSVKGRFTISRDNAKNTVYLQMNSLKPEDTAVYYCNAVTIRNVYYSGGYWGQGTQVTVSS
3. QVQLVESGGGLVQAGGSLRLSCAASGSIFGSYARGRYRQAPVKERELVAGITYRGSSTYYADSVKGRFTISRDKAKNTVYLQMNSLKPEDTAVYYCAADPVFDEYDYWGQGTQVTVSS

Response:
["high polyreactivity", "high polyreactivity", "low polyreactivity"]
